- Test system: Saccharomyces cerevisiae
- method_summary: protein stability index of tFT-peptide fusion in wild type (PSI (0-1 scale)); higher = more stable (slower turnover)
- condition_notes: genetic background: wild type
experimental_endpoint: protein stability index

>  <entry_sequence>
RLTQPLPVQFLN

>  <experimental_endpoint>
protein stability index

>  <value_reported>
0.0562

$$$$
>  <entry_sequence>
CRSCGYKFRTNN

>  <experimental_endpoint>
protein stability index

>  <value_reported>
0.243

$$$$
>  <entry_sequence>
KKHKKGTKQKIN

>  <experimental_endpoint>
protein stability index

>  <value_reported>
0.0759

$$$$
>  <entry_sequence>
PDKRNSLIKLLN

>  <experimental_endpoint>
protein stability index

>  <value_reported>
0.163

$$$$
>  <entry_sequence>
ARWRVGLWRGASQ

>  <experimental_endpoint>
protein stability index

>  <value_reported>
0.661

$$$$
>  <entry_sequence>
GLYMNSVGCWFR

>  <experimental_endpoint>
protein stability index

>  <value_reported>
0.351

$$$$
>  <entry_sequence>
MLYMCSVGCWFR

>  <experimental_endpoint>
protein stability index

>  <value_reported>
0.328

$$$$
>  <entry_sequence>
VRGAVGCWRLVG

>  <experimental_endpoint>
protein stability index

>  <value_reported>
0.162

$$$$
>  <entry_sequence>
CLVSLPILNFFR

>  <experimental_endpoint>
protein stability index

>  <value_reported>
0.637

$$$$
>  <entry_sequence>
LVVYWSCVACIN

>  <experimental_endpoint>
protein stability index

>  <value_reported>
0.0151

$$$$
>  <entry_sequence>
CTSCGYKFRTNK

>  <experimental_endpoint>
protein stability index

>  <value_reported>
0.689

$$$$
>  <entry_sequence>
WSMRWTFRYWVN

>  <experimental_endpoint>
protein stability index

>  <value_reported>
0.0469

$$$$
>  <entry_sequence>
RLIQPEPVQFLN

>  <experimental_endpoint>
protein stability index

>  <value_reported>
0.215

$$$$
>  <entry_sequence>
LKINRQKMNHQN

>  <experimental_endpoint>
protein stability index

>  <value_reported>
0.209

$$$$
>  <entry_sequence>
ARWQVGLWRGAS

>  <experimental_endpoint>
protein stability index

>  <value_reported>
0.444

$$$$
>  <entry_sequence>
ARWRVGLWRAAS

>  <experimental_endpoint>
protein stability index

>  <value_reported>
0.117

$$$$
>  <entry_sequence>
FSWRWTFRYWVN

>  <experimental_endpoint>
protein stability index

>  <value_reported>
0.0592

$$$$
>  <entry_sequence>
ARWRVGLWRGASI

>  <experimental_endpoint>
protein stability index

>  <value_reported>
0.652

$$$$
>  <entry_sequence>
RQTRLDAIYFRI

>  <experimental_endpoint>
protein stability index

>  <value_reported>
0.505

$$$$

---

- Test system: Saccharomyces cerevisiae
- method_summary: protein stability index of tFT-peptide fusion (C-terminal peptide) (PSI (0-1 scale)); higher = more stable (slower turnover)
- condition_notes: genetic background: wild type; temperature: 30 C

>  <entry_sequence>
RTQMLIIDKRNS

>  <protein stability index>
0.644

$$$$
>  <entry_sequence>
LVAHLSTAPPPP

>  <protein stability index>
0.675

$$$$
>  <entry_sequence>
WPVALAPTRLEI

>  <protein stability index>
0.608

$$$$
>  <entry_sequence>
PVVGNPHRIFGV

>  <protein stability index>
0.714

$$$$
>  <entry_sequence>
GPRVLCNCHLRD

>  <protein stability index>
0.688

$$$$
>  <entry_sequence>
LCFVCLWGYLGV

>  <protein stability index>
0.479

$$$$
>  <entry_sequence>
TSAEYKIETIFT

>  <protein stability index>
0.688

$$$$
>  <entry_sequence>
EGGCCRMVGVVK

>  <protein stability index>
0.633

$$$$
>  <entry_sequence>
ITRVGSLENSQV

>  <protein stability index>
0.635

$$$$
>  <entry_sequence>
PPPPPSSPPPPA

>  <protein stability index>
0.639

$$$$
>  <entry_sequence>
HTTMVGVAEGWV

>  <protein stability index>
0.686

$$$$
>  <entry_sequence>
KKSIVEARLSNM

>  <protein stability index>
0.58

$$$$
>  <entry_sequence>
KVRSFGGLFVKG

>  <protein stability index>
0.68

$$$$
>  <entry_sequence>
VSEKICNCLGKT

>  <protein stability index>
0.657

$$$$
>  <entry_sequence>
SAPLVHASSSPQ

>  <protein stability index>
0.722

$$$$
>  <entry_sequence>
LPPSPLPPLPPP

>  <protein stability index>
0.694

$$$$
>  <entry_sequence>
CYLSVGVASWNS

>  <protein stability index>
0.682

$$$$
>  <entry_sequence>
GRSMWFIEFGLG

>  <protein stability index>
0.758

$$$$
>  <entry_sequence>
SISFPPPPRSLT

>  <protein stability index>
0.719

$$$$
>  <entry_sequence>
FPPLRSLPPTPP

>  <protein stability index>
0.793

$$$$
>  <entry_sequence>
LRLSSYRAPRPR

>  <protein stability index>
0.649

$$$$
>  <entry_sequence>
PPPPPRPFLPPP

>  <protein stability index>
0.654

$$$$
>  <entry_sequence>
LCLDNFSSSWPI

>  <protein stability index>
0.719

$$$$
>  <entry_sequence>
LHCRFDCTPFPY

>  <protein stability index>
0.67

$$$$
>  <entry_sequence>
QYKRFYGSLVNG

>  <protein stability index>
0.608

$$$$
>  <entry_sequence>
VACIIIDFTRWY

>  <protein stability index>
0.536

$$$$
>  <entry_sequence>
KNKKKNKNNKKK

>  <protein stability index>
0.705

$$$$
>  <entry_sequence>
PPLFRPPASAPR

>  <protein stability index>
0.715

$$$$
>  <entry_sequence>
SAPPPAPPPPPR

>  <protein stability index>
0.702

$$$$
>  <entry_sequence>
VAIGGGLGGDRC

>  <protein stability index>
0.719

$$$$
>  <entry_sequence>
YAGDPEAAAEWG

>  <protein stability index>
0.68

$$$$
>  <entry_sequence>
DYLVRGPPRASG

>  <protein stability index>
0.629

$$$$
>  <entry_sequence>
NFAFPWTSTHAF

>  <protein stability index>
0.699

$$$$
>  <entry_sequence>
CDSRIRKIWSYL

>  <protein stability index>
0.36

$$$$
>  <entry_sequence>
RLLFPPPMLPPP

>  <protein stability index>
0.735

$$$$
>  <entry_sequence>
EWLCLRGCCVLY

>  <protein stability index>
0.667

$$$$
>  <entry_sequence>
GCLSFVAAVHLH

>  <protein stability index>
0.433

$$$$
>  <entry_sequence>
PRPAQDAEPIQP

>  <protein stability index>
0.646

$$$$
>  <entry_sequence>
FFFPLLLLSPPI

>  <protein stability index>
0.535

$$$$
>  <entry_sequence>
PISLFLSSSAPL

>  <protein stability index>
0.729

$$$$
>  <entry_sequence>
SLEQRPLQRPPS

>  <protein stability index>
0.694

$$$$
